Target: human ERα (Homo sapiens, UniProt P03372)
Sequence (P03372 whole entry): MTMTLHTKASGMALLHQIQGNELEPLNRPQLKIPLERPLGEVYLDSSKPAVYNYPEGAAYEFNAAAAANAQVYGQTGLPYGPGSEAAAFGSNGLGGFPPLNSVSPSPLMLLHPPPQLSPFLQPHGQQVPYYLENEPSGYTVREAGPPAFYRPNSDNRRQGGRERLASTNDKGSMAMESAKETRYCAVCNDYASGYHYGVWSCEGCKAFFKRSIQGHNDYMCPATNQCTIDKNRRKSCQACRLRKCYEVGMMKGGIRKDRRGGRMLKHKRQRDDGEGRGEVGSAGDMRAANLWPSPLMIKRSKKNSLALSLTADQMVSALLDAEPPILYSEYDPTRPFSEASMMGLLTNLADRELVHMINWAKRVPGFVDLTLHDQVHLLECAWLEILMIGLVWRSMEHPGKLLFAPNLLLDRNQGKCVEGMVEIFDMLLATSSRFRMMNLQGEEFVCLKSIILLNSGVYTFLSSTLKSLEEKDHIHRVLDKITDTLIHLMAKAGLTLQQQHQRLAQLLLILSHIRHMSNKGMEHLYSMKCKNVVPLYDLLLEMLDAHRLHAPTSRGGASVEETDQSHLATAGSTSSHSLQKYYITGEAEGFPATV
Test: Creatine kinase expression (ER/CK) in Ad5-wt-hERα infected HAECT-1 cells
Details: efficacy relative to the maximal stimulation observed with E2
PROPERTY_MEASURED: ER/CK % E2 (% E2)

Here are 5 compounds together with their reported answers.
compound="Oc1ccc(-c2c3cccc(F)c3nn2C2CCCC2)cc1 [Example 61]" value_unit="% E2" reported_value=33
compound="Oc1ccc(-c2nn(C3CCCCC3)c3c(F)cccc23)cc1 [Example 33]" value_unit="% E2" reported_value=34
compound="CCCCn1nc(-c2ccc(O)cc2)c2cccc(F)c21 [Example 220]" value_unit="% E2" reported_value=48
compound="Oc1ccc(-c2nn(Cc3ccccc3)c3c(F)cccc23)cc1 [Example 145]" value_unit="% E2" reported_value=48
compound="Cc1cc(O)ccc1-c1nn(C(C)C)c2c(Cl)cccc12 [Example 77]" value_unit="% E2" reported_value=29

[P] C=CCn1nc2c(Cl)cccc2c1-c1ccc(O)cc1C [Example 78]
[Q] Oc1ccc(-c2nn(Cc3ccccc3)c3ccccc23)c(O)c1 [Example 183]
[R] CC(C)(C)OC(=O)N[C@@H](CCC(=O)Oc1ccc(-c2nn(C3CCCC3)c3c(F)cccc23)cc1)C(=O)OC(C)(C)C [Example 117]
[ask] Please list the entries, largest ER/CK % E2 first. Please list the labels according to the requested order.
[reply] Q, P, R
(Q: 48 % E2, P: 32 % E2, R: 22 % E2)

###

Biological target: human ERα (Homo sapiens, UniProt P03372)
Test: Creatine kinase expression (ER/CK) in Ad5-wt-hERα infected HAECT-1 cells
Details: efficacy relative to the maximal stimulation observed with E2
PROPERTY_MEASURED: ER/CK % E2 (% E2)

Here are 4 compounds together with their reported answers.
structure_smiles_string=CCCn1nc2c(Cl)cccc2c1-c1ccc(O)cc1C measured_on="human ERα (Homo sapiens, UniProt P03372)" reported_value=52
structure_smiles_string=CCCCn1nc(-c2ccc(O)cc2)c2ccc(Cl)cc21 measured_on="human ERα (Homo sapiens, UniProt P03372)" reported_value=42
structure_smiles_string=CC(C)n1nc(-c2ccc(O)cc2)c2cccc(-c3ccsc3)c21 measured_on="human ERα (Homo sapiens, UniProt P03372)" reported_value=20
structure_smiles_string=Oc1ccc(-c2nn(Cc3ccccc3)c3c(Cl)cccc23)c(O)c1 measured_on="human ERα (Homo sapiens, UniProt P03372)" reported_value=30

[I] CCCCCn1nc(-c2ccc(O)cc2)c2cccc(Cl)c21
[II] Cc1cc(O)ccc1-c1nn(C2CCCC2)c2c(-c3ccco3)cccc12
[III] Cc1cccc2c(-c3ccc(O)cc3)n(C(C)C)nc12
[ask] Please list the entries, largest ER/CK % E2 first. Please list the labels according to the requested order.
[reply] III, I, II
(III: 79 % E2, I: 39 % E2, II: 17 % E2)

###

Molecular target: UniProtKB P03372
Assay: Creatine kinase expression (ER/CK) in Ad5-wt-hERα infected HAECT-1 cells
Conditions: efficacy relative to the maximal stimulation observed with E2
PROPERTY_MEASURED: ER/CK % E2 (% E2)

structure_smiles_string=C=CCn1nc(-c2ccc(O)cc2)c2cccc(C)c21 value_unit="% E2" reported_value=45
structure_smiles_string=CCCCn1nc(-c2ccc(O)cc2)c2ccccc21 value_unit="% E2" reported_value=36
structure_smiles_string=CCCCn1nc(-c2ccc(O)cc2)c2ccc(C(F)(F)F)cc21 value_unit="% E2" reported_value=30

[1] Oc1ccc(-c2n[nH]c3c(F)cccc23)cc1
[2] Cn1nc(-c2ccc(O)cc2)c2cc(F)ccc21
[ask] Which numeric ER/CK % E2 is bigger, that of 1 or that of 2 ? Provide the label of your selected option as the answer.
[reply] 2

Origin of the recorded values: patent US7241791B2
